PROTOCOL_DESCRIPTION: PK study of Form A of Compound I in dogs
Assay type: in vivo
ASSAY_SETUP: beagle, dog, plasma, po, 75 mg/kg, PO dose of 75 mg/kg, 0.25 hr, Dog #2, read-out: plasma concentration
REPORTED_PROPERTY: concentration at 0.25 h (ng/mL)
Give bare numbers, in ng/mL.

Query: Return reported concentration at 0.25 h; argument: COC(=O)N[C@H](C(=O)N1CCC[C@H]1c1ncc(-c2ccc3cc(-c4ccc5nc([C@@H]6CCCN6C(=O)[C@@H](NC(=O)OC)C(C)C)[nH]c5c4)ccc3c2)[nH]1)C(C)C [Form A of Compound I]
Response: 374

---

PROTOCOL_DESCRIPTION: PK study of Form I of Compound II in monkeys
Format: in vivo
ASSAY_SETUP: male, cynomolgus monkey, plasma, po, 75 mg/kg, PO dose of 75 mg/kg, 8 hr, #0612169, read-out: plasma concentration
REPORTED_PROPERTY: concentration at 8 hr (ng/mL)
One number for each entry, in ng/mL.

Query: Return reported concentration at 8 hr; argument: CC[C@H](C)[C@H](NC(=O)OC)C(=O)N1CCC[C@H]1c1nc2ccc(-c3ccc4cc(-c5cnc([C@@H]6CCCN6C(=O)[C@@H](NC(=O)OC)[C@@H](C)OC)[nH]5)ccc4c3)cc2[nH]1 [Form I of Compound II]
Response: 93.1

---

PROTOCOL_DESCRIPTION: PK study of Form A of Compound I in rats
Format: in vivo
ASSAY_SETUP: male, Sprague-Dawley, rat, plasma, po, 75 mg/kg, single PO dose of 75 mg/kg, male SD rats, 1 hr, Rat #3; read-out: plasma concentration
REPORTED_PROPERTY: concentration at 1 h (ng/mL)
Numbers only, in ng/mL.

Query: Return reported concentration at 1 h; argument: COC(=O)N[C@H](C(=O)N1CCC[C@H]1c1ncc(-c2ccc3cc(-c4ccc5nc([C@@H]6CCCN6C(=O)[C@@H](NC(=O)OC)C(C)C)[nH]c5c4)ccc3c2)[nH]1)C(C)C [Form A of Compound I]
Response: 6230

---

PROTOCOL_DESCRIPTION: PK study of Form A of Compound I in dogs
Assay type: in vivo
ASSAY_SETUP: beagle, dog, plasma, po, 75 mg/kg, PO dose of 75 mg/kg, 2 hr, Dog #1, read-out: plasma concentration
REPORTED_PROPERTY: concentration at 2 hr (ng/mL)
Numbers only, in ng/mL.

Query: Return reported concentration at 2 hr; argument: COC(=O)N[C@H](C(=O)N1CCC[C@H]1c1ncc(-c2ccc3cc(-c4ccc5nc([C@@H]6CCCN6C(=O)[C@@H](NC(=O)OC)C(C)C)[nH]c5c4)ccc3c2)[nH]1)C(C)C [Form A of Compound I]
Response: 2980

---

PROTOCOL_DESCRIPTION: PK study of Form A of Compound I in dogs
Assay type: in vivo
ASSAY_SETUP: beagle, dog, plasma, po, 75 mg/kg, PO dose of 75 mg/kg, 0.25 hr, Mean, read-out: mean plasma concentration
Method: The pharmacokinetics (PK) properties of Form A of Compound I and Form I of Compound II were determined in a series of comprehensive experiments in preclinical species including Sprague-Dawley rats, beagle dogs, cynomolgus monkeys. […] For the validated assay in rat and monkey EDTA plasma, the Lower Limit of Quantitation (LLOQ) for both compound 1 and 2 was 5.00 ng/mL, and the assay was linear from 5.00-1,000 ng/mL. […]
REPORTED_PROPERTY: concentration at 0.25 h (ng/mL)
One number for each entry, in ng/mL.

Query: Return reported concentration at 0.25 h; argument: COC(=O)N[C@H](C(=O)N1CCC[C@H]1c1ncc(-c2ccc3cc(-c4ccc5nc([C@@H]6CCCN6C(=O)[C@@H](NC(=O)OC)C(C)C)[nH]c5c4)ccc3c2)[nH]1)C(C)C [Form A of Compound I]
Response: 320

---

PROTOCOL_DESCRIPTION: PK study of Form I of Compound II in monkeys
Assay type: in vivo
ASSAY_SETUP: male, cynomolgus monkey, plasma, po, 75 mg/kg, PO dose of 75 mg/kg, 1 hr, #0612169, read-out: plasma concentration
REPORTED_PROPERTY: concentration at 1 hr (ng/mL)
Give bare numbers, in ng/mL.

Query: Return reported concentration at 1 hr; argument: CC[C@H](C)[C@H](NC(=O)OC)C(=O)N1CCC[C@H]1c1nc2ccc(-c3ccc4cc(-c5cnc([C@@H]6CCCN6C(=O)[C@@H](NC(=O)OC)[C@@H](C)OC)[nH]5)ccc4c3)cc2[nH]1 [Form I of Compound II]
Response: 1140

---

PROTOCOL_DESCRIPTION: PK study of Form A of Compound I in dogs
Type: in vivo
ASSAY_SETUP: beagle, dog, plasma, po, 75 mg/kg, PO dose of 75 mg/kg, 8 hr, Dog #2, read-out: plasma concentration
REPORTED_PROPERTY: concentration at 8 hr
Just the number plus its unit, please.

Query: Return reported concentration at 8 hr; argument: COC(=O)N[C@H](C(=O)N1CCC[C@H]1c1ncc(-c2ccc3cc(-c4ccc5nc([C@@H]6CCCN6C(=O)[C@@H](NC(=O)OC)C(C)C)[nH]c5c4)ccc3c2)[nH]1)C(C)C [Form A of Compound I]
Response: 1040 ng/mL

---

PROTOCOL_DESCRIPTION: PK study of Form I of Compound II in monkeys
Type: in vivo
ASSAY_SETUP: male, cynomolgus monkey, plasma, po, 75 mg/kg, PO dose of 75 mg/kg, 8 hr, #0610703, read-out: plasma concentration
REPORTED_PROPERTY: concentration at 8 hr (ng/mL)
One number for each entry, in ng/mL.

Query: Return reported concentration at 8 hr; argument: CC[C@H](C)[C@H](NC(=O)OC)C(=O)N1CCC[C@H]1c1nc2ccc(-c3ccc4cc(-c5cnc([C@@H]6CCCN6C(=O)[C@@H](NC(=O)OC)[C@@H](C)OC)[nH]5)ccc4c3)cc2[nH]1 [Form I of Compound II]
Response: 55.9

---

PROTOCOL_DESCRIPTION: PK study of Form A of Compound I in rats
Type: in vivo
ASSAY_SETUP: male, Sprague-Dawley, rat, plasma, po, 75 mg/kg, single PO dose of 75 mg/kg, male SD rats, 4 hr, Rat #3; read-out: plasma concentration
REPORTED_PROPERTY: concentration at 4 h
Just the number plus its unit, please.

Query: Return reported concentration at 4 h; argument: COC(=O)N[C@H](C(=O)N1CCC[C@H]1c1ncc(-c2ccc3cc(-c4ccc5nc([C@@H]6CCCN6C(=O)[C@@H](NC(=O)OC)C(C)C)[nH]c5c4)ccc3c2)[nH]1)C(C)C [Form A of Compound I]
Response: 2930 ng/mL

---

Tested on: bi-cistronic genotype 1b replicon in Huh 7 cells (1b_Huh-Luc/Neo-ET cell line)
PROTOCOL_DESCRIPTION: HCV replicon assay, GT 1b (luciferase readout)
Assay type: cell-based
ASSAY_SETUP: Hepatitis C virus, GT 1b replicon, n > 3
REPORTED_PROPERTY: pEC50
Answers are plain numbers, as −log10 of the molar value.

Answer for every listed entry: what is its pEC50? The entries follow.
1. COC(=O)N[C@H](C(=O)N1CCC[C@H]1c1ncc(-c2ccc3cc(-c4ccc5nc([C@@H]6CCCN6C(=O)[C@@H](NC(=O)OC)C(C)C)[nH]c5c4)ccc3c2)[nH]1)C(C)C [Compound I]
2. CC[C@H](C)[C@H](NC(=O)OC)C(=O)N1CCC[C@H]1c1nc2ccc(-c3ccc4cc(-c5cnc([C@@H]6CCCN6C(=O)[C@@H](NC(=O)OC)[C@@H](C)OC)[nH]5)ccc4c3)cc2[nH]1 [Compound II]

Response:
10.80
11.00

---

PROTOCOL_DESCRIPTION: Solubility of Form A (aliquot addition / slurry, visual)
Format: physicochemical
ASSAY_SETUP: organic solvent or mixture, thermodynamic from solid; IPA:tBME (2:1), ~60° C., aliquot addition
REPORTED_PROPERTY: solubility

Query: Return reported solubility; argument: COC(=O)N[C@H](C(=O)N1CCC[C@H]1c1ncc(-c2ccc3cc(-c4ccc5nc([C@@H]6CCCN6C(=O)[C@@H](NC(=O)OC)C(C)C)[nH]c5c4)ccc3c2)[nH]1)C(C)C [Form A of Compound I]
Response: < 3000 µg/mL

---

PROTOCOL_DESCRIPTION: PK study of Form I of Compound II in monkeys
Assay type: in vivo
ASSAY_SETUP: male, cynomolgus monkey, plasma, po, 75 mg/kg, PO dose of 75 mg/kg, 0.25 hr, Mean, read-out: mean plasma concentration
Experimental: The pharmacokinetics (PK) properties of Form A of Compound I and Form I of Compound II were determined in a series of comprehensive experiments in preclinical species including Sprague-Dawley rats, beagle dogs, cynomolgus monkeys. […] For the validated assay in rat and monkey EDTA plasma, the Lower Limit of Quantitation (LLOQ) for both compound 1 and 2 was 5.00 ng/mL, and the assay was linear from 5.00-1,000 ng/mL. […]
REPORTED_PROPERTY: concentration at 0.25 h
Just the number plus its unit, please.

Query: Return reported concentration at 0.25 h; argument: CC[C@H](C)[C@H](NC(=O)OC)C(=O)N1CCC[C@H]1c1nc2ccc(-c3ccc4cc(-c5cnc([C@@H]6CCCN6C(=O)[C@@H](NC(=O)OC)[C@@H](C)OC)[nH]5)ccc4c3)cc2[nH]1 [Form I of Compound II]
Response: 60.1 ng/mL
